Experiment: Plasma pharmacokinetics, Phase I open‐label two‐group fixed‐sequence drug‐drug interaction study
Conditions: human, plasma, oral, T max, Group 1 Day 23, SMV + AL‐335 + ODV; median (range)
Reported Property: Tmax (h)
Could you give me the number in h? Just the number is fine.

Tell me the measured Tmax of COc1ccc2c(O[C@@H]3C[C@H]4C(=O)N[C@]5(C(=O)NS(=O)(=O)C6CC6)C[C@H]5/C=C\CCCCN(C)C(=O)[C@@H]4C3)cc(-c3nc(C(C)C)cs3)nc2c1C [simeprevir] , please.
6

---

Test: Plasma pharmacokinetics, Phase I open‐label two‐group fixed‐sequence drug‐drug interaction study
Conditions: human, plasma, oral, C last, Group 2 Day 23, SMV + AL‐335 + ODV; mean (SD)
Reported Property: concentration at 24 h (ng/mL)
Supply the numeric figure in ng/mL, leaving out any unit text.

Which concentration at 24 h value is on record for `COc1ccc2c(O[C@@H]3C[C@H]4C(=O)N[C@]5(C(=O)NS(=O)(=O)C6CC6)C[C@H]5/C=C\CCCCN(C)C(=O)[C@@H]4C3)cc(-c3nc(C(C)C)cs3)nc2c1C` ?
2590

---

Experiment: Plasma pharmacokinetics, Phase I open‐label two‐group fixed‐sequence drug‐drug interaction study
Settings: human, plasma, oral, T max, Group 2 Day 20, SMV + ODV; median (range)
Reported Property: Tmax (h)
Record the value in h, omitting the unit from your answer.

Find the recorded Tmax belonging to COc1ccc2c(O[C@@H]3C[C@H]4C(=O)N[C@]5(C(=O)NS(=O)(=O)C6CC6)C[C@H]5/C=C\CCCCN(C)C(=O)[C@@H]4C3)cc(-c3nc(C(C)C)cs3)nc2c1C [simeprevir] and report it.
6

---

Test: Plasma pharmacokinetics, Phase I open‐label two‐group fixed‐sequence drug‐drug interaction study
Details: human, plasma, oral, T max, Group 1 Day 20, SMV + ODV; median (range)
Reported Property: Tmax (h)
All answers are understood in h, so give the number only.

Consider the compound shown here: `COc1ccc2c(O[C@@H]3C[C@H]4C(=O)N[C@]5(C(=O)NS(=O)(=O)C6CC6)C[C@H]5/C=C\CCCCN(C)C(=O)[C@@H]4C3)cc(-c3nc(C(C)C)cs3)nc2c1C` What is its recorded Tmax?
6

---

Experiment: Plasma pharmacokinetics, Phase I open‐label two‐group fixed‐sequence drug‐drug interaction study
Conditions: human, plasma, oral, C last, Group 1 Day 13, SMV + AL‐335; mean (SD)
Procedure: This was an open‐label, two‐group, fixed‐sequence study conducted at a single study center in Rennes, France (Biotrial). […] Plasma concentrations of AL‐335, ALS‐022399, ALS‐022227, odalasvir, and simeprevir were determined using validated liquid chromatography‐tandem mass spectrometry methods. […] The lower limit of quantification was 1 ng/mL, 2 ng/mL, and 5 ng/mL for AL‐335, ALS‐022399, and ALS‐022227, respectively, 1 ng/mL for odalasvir, and 2 ng/mL for simeprevir. […]
Reported Property: concentration at 23.9 h (ng/mL)
Number only, in ng/mL; omit the unit.

Look up concentration at 23.9 h for this compound: `COc1ccc2c(O[C@@H]3C[C@H]4C(=O)N[C@]5(C(=O)NS(=O)(=O)C6CC6)C[C@H]5/C=C\CCCCN(C)C(=O)[C@@H]4C3)cc(-c3nc(C(C)C)cs3)nc2c1C`
1020

---

Test: Plasma pharmacokinetics, Phase I open‐label two‐group fixed‐sequence drug‐drug interaction study
Conditions: human, plasma, oral, T max, Group 1 Day 10, SMV alone; median (range)
Reported Property: Tmax

I would be grateful if you could share the reported Tmax for COc1ccc2c(O[C@@H]3C[C@H]4C(=O)N[C@]5(C(=O)NS(=O)(=O)C6CC6)C[C@H]5/C=C\CCCCN(C)C(=O)[C@@H]4C3)cc(-c3nc(C(C)C)cs3)nc2c1C [simeprevir] .
6 h

---

Test: Plasma pharmacokinetics, Phase I open‐label two‐group fixed‐sequence drug‐drug interaction study
Details: human, in vivo, T max, Group 2 Day 23, AL‐335 + ODV + SMV; median (range)
Reported Property: Tmax
Form entry: enter the amount, then its unit.

Item under review: `CC(C)OC(=O)[C@H](C)N[P@](=O)(OC[C@@]1(F)O[C@@H](n2ccc(=O)[nH]c2=O)[C@](C)(O)[C@@H]1O)Oc1ccccc1` . Reported Tmax?
3 h

---

Test: Plasma pharmacokinetics, Phase I open‐label two‐group fixed‐sequence drug‐drug interaction study
Settings: human, in vivo, t 1/2, Group 2 Day 13, AL‐335 + ODV; mean (SD)
Reported Property: half-life

Entry CC(C)OC(=O)[C@H](C)N[P@](=O)(OC[C@@]1(F)O[C@@H](n2ccc(=O)[nH]c2=O)[C@](C)(O)[C@@H]1O)Oc1ccccc1 [AL‐335] has what half-life?
37.2 min

---

Test: Plasma pharmacokinetics, Phase I open‐label two‐group fixed‐sequence drug‐drug interaction study
Conditions: human, in vivo, t 1/2, Group 1 Day 13, AL‐335 + SMV; mean (SD)
Reported Property: half-life (min)
Provide only the numeric value, understood in min.

Sample CC(C)OC(=O)[C@H](C)N[P@](=O)(OC[C@@]1(F)O[C@@H](n2ccc(=O)[nH]c2=O)[C@](C)(O)[C@@H]1O)Oc1ccccc1 [AL‐335] — what was its half-life?
38.4

---

Experiment: Plasma pharmacokinetics, Phase I open‐label two‐group fixed‐sequence drug‐drug interaction study
Conditions: human, in vivo, 800 mg, T max, Group 2 Day 3, AL‐335 alone; median (range)
Reported Property: Tmax (h)
Write it as a number; the unit h goes unstated.

Please look up its Tmax: `CC(C)OC(=O)[C@H](C)N[P@](=O)(OC[C@@]1(F)O[C@@H](n2ccc(=O)[nH]c2=O)[C@](C)(O)[C@@H]1O)Oc1ccccc1`
2

---

Experiment: Plasma pharmacokinetics, Phase I open‐label two‐group fixed‐sequence drug‐drug interaction study
Conditions: human, in vivo, 800 mg, t 1/2, Group 1 Day 3, AL‐335 alone; mean (SD)
Procedure: This was an open‐label, two‐group, fixed‐sequence study conducted at a single study center in Rennes, France (Biotrial). […] Plasma concentrations of AL‐335, ALS‐022399, ALS‐022227, odalasvir, and simeprevir were determined using validated liquid chromatography‐tandem mass spectrometry methods. […] The lower limit of quantification was 1 ng/mL, 2 ng/mL, and 5 ng/mL for AL‐335, ALS‐022399, and ALS‐022227, respectively, 1 ng/mL for odalasvir, and 2 ng/mL for simeprevir. […]
Reported Property: half-life (min)
Enter your answer as a number in min; do not include the unit.

Query (compound): `CC(C)OC(=O)[C@H](C)N[P@](=O)(OC[C@@]1(F)O[C@@H](n2ccc(=O)[nH]c2=O)[C@](C)(O)[C@@H]1O)Oc1ccccc1` ; field requested: half-life
36.6

---

Test: Plasma pharmacokinetics, Phase I open‐label two‐group fixed‐sequence drug‐drug interaction study
Settings: human, in vivo, t 1/2, Group 1 Day 23, AL‐335 + ODV + SMV; mean (SD)
Description: This was an open‐label, two‐group, fixed‐sequence study conducted at a single study center in Rennes, France (Biotrial). […] Plasma concentrations of AL‐335, ALS‐022399, ALS‐022227, odalasvir, and simeprevir were determined using validated liquid chromatography‐tandem mass spectrometry methods. […] The lower limit of quantification was 1 ng/mL, 2 ng/mL, and 5 ng/mL for AL‐335, ALS‐022399, and ALS‐022227, respectively, 1 ng/mL for odalasvir, and 2 ng/mL for simeprevir. […]
Reported Property: half-life (min)
Supply the numeric figure in min, leaving out any unit text.

Data request, read-out half-life, for `CC(C)OC(=O)[C@H](C)N[P@](=O)(OC[C@@]1(F)O[C@@H](n2ccc(=O)[nH]c2=O)[C@](C)(O)[C@@H]1O)Oc1ccccc1`
41.4

---

Assay: Plasma pharmacokinetics, Phase I open‐label two‐group fixed‐sequence drug‐drug interaction study
Conditions: human, in vivo, t 1/2, Group 2 Day 23, AL‐335 + ODV + SMV; mean (SD)
Protocol: This was an open‐label, two‐group, fixed‐sequence study conducted at a single study center in Rennes, France (Biotrial). […] Plasma concentrations of AL‐335, ALS‐022399, ALS‐022227, odalasvir, and simeprevir were determined using validated liquid chromatography‐tandem mass spectrometry methods. […] The lower limit of quantification was 1 ng/mL, 2 ng/mL, and 5 ng/mL for AL‐335, ALS‐022399, and ALS‐022227, respectively, 1 ng/mL for odalasvir, and 2 ng/mL for simeprevir. […]
Reported Property: half-life
Please don't drop the unit; write it after the number.

Form field: reported half-life of `CC(C)OC(=O)[C@H](C)N[P@](=O)(OC[C@@]1(F)O[C@@H](n2ccc(=O)[nH]c2=O)[C@](C)(O)[C@@H]1O)Oc1ccccc1`
50.4 min

---

Assay: Plasma pharmacokinetics, Phase I open‐label two‐group fixed‐sequence drug‐drug interaction study
Conditions: human, plasma, oral, 150 mg, C last, Group 1 Day 10, SMV alone; mean (SD)
Reported Property: concentration at 23.9 h (ng/mL)
Express your answer in ng/mL, writing the number without its unit.

For `COc1ccc2c(O[C@@H]3C[C@H]4C(=O)N[C@]5(C(=O)NS(=O)(=O)C6CC6)C[C@H]5/C=C\CCCCN(C)C(=O)[C@@H]4C3)cc(-c3nc(C(C)C)cs3)nc2c1C` , what is its reported concentration at 23.9 h?
981
